measurement target: Proto-oncogene tyrosine-protein kinase Src (Homo sapiens, UniProt P12931)
Sequence (P12931 2-536 limits assumed): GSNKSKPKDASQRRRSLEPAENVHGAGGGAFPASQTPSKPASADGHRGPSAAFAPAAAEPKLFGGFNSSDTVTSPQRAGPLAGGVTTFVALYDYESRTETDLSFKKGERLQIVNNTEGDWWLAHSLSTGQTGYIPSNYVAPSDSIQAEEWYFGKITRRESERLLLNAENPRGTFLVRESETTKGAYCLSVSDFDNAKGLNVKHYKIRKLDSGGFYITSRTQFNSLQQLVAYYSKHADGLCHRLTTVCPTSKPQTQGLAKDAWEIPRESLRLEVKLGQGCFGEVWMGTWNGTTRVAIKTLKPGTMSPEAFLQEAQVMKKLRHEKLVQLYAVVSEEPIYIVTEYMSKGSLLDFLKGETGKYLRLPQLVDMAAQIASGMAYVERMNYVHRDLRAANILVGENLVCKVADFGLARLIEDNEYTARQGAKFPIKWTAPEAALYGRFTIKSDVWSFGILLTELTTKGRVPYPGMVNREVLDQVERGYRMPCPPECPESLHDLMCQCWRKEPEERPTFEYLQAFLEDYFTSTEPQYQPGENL
run description: Fluorescence Resonance Energy Transfer (FRET) Assay: The enzyme inhibitory activity of test compounds was determined by fluorescence resonance energy transfer (FRET) using synthetic peptides labelled with both donor and acceptor fluorophores (Z-LYTE, Invitrogen). Recombinant, phosphorylated p38 MAPK (MAPK12:Millipore) was diluted in HEPES buffer, mixed with compound at the desired final concentrations and incubated for 2 hr at RT. The FRET peptide (2 uM) and ATP (100 uM) were next added to the enzyme/compound mixture and incubated for 1 hr. Development reagent (protease) was added for 1 hr prior to detection in a fluorescence microplate reader. The site-specific protease only cleaves non-phosphorylated peptide and eliminates the FRET signal. Phosphorylation levels of each reaction were calculated using the ratio of coumarin emission (donor) over fluorescein emission (acceptor) with […].
property name: IC50 (nM)

CC(C)(C)c1cc(NC(=O)Nc2ccc(Oc3ccnc4[nH]c(=O)cnc34)c3ccccc23)n(-c2ccc(Cl)c(Cl)c2)n1 = 6
Cc1ccc(-n2nc(C(C)C)cc2NC(=O)Nc2ccc(Oc3ccnc4[nH]c(=O)cnc34)c3ccccc23)cc1 = 8

---

measurement target: Mitogen-activated protein kinase 12 (Homo sapiens, UniProt P53778)
Sequence (P53778 whole entry): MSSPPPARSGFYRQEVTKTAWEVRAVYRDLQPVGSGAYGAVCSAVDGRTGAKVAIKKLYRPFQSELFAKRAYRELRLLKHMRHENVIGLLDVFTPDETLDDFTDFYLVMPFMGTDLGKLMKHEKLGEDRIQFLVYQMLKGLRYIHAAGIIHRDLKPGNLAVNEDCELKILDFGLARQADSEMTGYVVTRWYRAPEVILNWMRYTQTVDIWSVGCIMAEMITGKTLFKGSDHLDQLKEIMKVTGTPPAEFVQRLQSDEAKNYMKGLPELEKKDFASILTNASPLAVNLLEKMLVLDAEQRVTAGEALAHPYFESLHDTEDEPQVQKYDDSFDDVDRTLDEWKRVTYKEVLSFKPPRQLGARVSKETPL
run description: Fluorescence Resonance Energy Transfer (FRET) Assay: The enzyme inhibitory activity of test compounds was determined by fluorescence resonance energy transfer (FRET) using synthetic peptides labelled with both donor and acceptor fluorophores (Z-LYTE, Invitrogen). Recombinant, phosphorylated p38 MAPK (MAPK12:Millipore) was diluted in HEPES buffer, mixed with compound at the desired final concentrations and incubated for 2 hr at RT. The FRET peptide (2 uM) and ATP (100 uM) were next added to the enzyme/compound mixture and incubated for 1 hr. Development reagent (protease) was added for 1 hr prior to detection in a fluorescence microplate reader. The site-specific protease only cleaves non-phosphorylated peptide and eliminates the FRET signal. Phosphorylation levels of each reaction were calculated using the ratio of coumarin emission (donor) over fluorescein emission (acceptor) with […].
pIC50: −log10 of the molar value.
property name: pIC50

Cc1ccc(-n2nc(C(C)C)cc2NC(=O)Nc2ccc(Oc3ccnc4[nH]c(=O)cnc34)c3ccccc23)cc1 = 7.41

(I) Cc1ccc(-n2nc(C(C)(C)C)cc2NC(=O)Nc2ccc(Oc3ccnc4[nH]c(=O)cnc34)c3ccccc23)s1
(II) CC(C)(C)c1cc(NC(=O)Nc2ccc(Oc3ccnc4[nH]c(=O)cnc34)c3ccccc23)n(-c2ccc(Cl)c(Cl)c2)n1
input: Smaller pIC50 value? Options are I and II Your answer should be the label of the entry you select.
output: II
